- Target: REV-ERBα LBD (human; residues 281-614 Δ324-422) (Homo sapiens, UniProt P20393, DEL324-422)
- Construct: 6×Histag-REV-ERBα LBD (human; residues 281-614 Δ324-422); made in house; host or cells: Escherichia coli
- Sequence (P20393 with tags, fused parts or gaps DEL324-422): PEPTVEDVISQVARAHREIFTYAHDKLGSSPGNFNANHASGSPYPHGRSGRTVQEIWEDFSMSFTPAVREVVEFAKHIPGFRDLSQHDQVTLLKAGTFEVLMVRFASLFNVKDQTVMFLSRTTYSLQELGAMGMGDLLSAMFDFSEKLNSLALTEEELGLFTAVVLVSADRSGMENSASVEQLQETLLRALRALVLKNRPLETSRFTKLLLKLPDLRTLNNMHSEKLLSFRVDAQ
- Sequence (Q9Y618 2335-2356 partner limits assumed): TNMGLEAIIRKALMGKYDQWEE
- Test method notes: TR-FRET corepressor interaction assay (REV-ERBα LBD, FITC-SMRT peptide)
- Assay type: biochemical
- Reported conditions: Table 2, read-out: REVERBα agonism (EC50 class, FRET assay)
Some compounds, each annotated with its measured EC50.

{"columns": ["Compound", "Observable", "Result"],
 "data": [
  ["Cc1cccc2c(CCNS(=O)(=O)N(C)C)cn(CC(C)C)c12", "EC50", "500 to 3000 nM"]
]}

Would you kindly look at the next entry?
Reported EC50 for CC(C)(C)Cn1cc([C@H](NS(=O)(=O)C2CC2)C(F)(F)F)c2cc(F)c(-c3ccccc3C(F)(F)F)cc21 : what is it? < 500 nM
